Tested on: Yap1 mRNA
experiment: Dose-dependent inhibition of human Yap1 in A-431 cells (Example 6, 5,000 cells per well, RTS4814)
Assay type: cell-based
statedConditions: Table 53; A-431 cells, free uptake, 4000 nM, approximately 48 hours, RTS4814
Strand notation (5' to 3'): a small letter for the sugar, then the base; units joined by * are phosphorothioate-linked, units joined directly phosphodiester-linked; [ ] holds rarer units or linkages, { } end groups; capitals alone tell only the bases. k = constrained ethyl (cEt); [5mC] = 5-methylcytosine; d = 2'-deoxy (DNA)
Label scheme for % UTC 4000 nM: lower than 40 % UTC is condition not met, 40 % UTC and above is condition met.

substance: 715555 (kG*kT*kT*dA*dT*dT*d[5mC]*dA*dG*d[5mC]*dA*dG*d[5mC]*kT*kT*kA; antisense) [compound 715555]
labelClass: condition met
--
substance: 715490 (k[5mC]*k[5mC]*kA*dA*d[5mC]*dT*dA*dT*dT*dA*d[5mC]*dT*dT*k[5mC]*kA*kT; antisense) [compound 715490]
labelClass: condition met
--
substance: 715508 (k[5mC]*kT*kG*dT*dG*d[5mC]*dT*dG*dG*dG*dA*dT*dT*kG*kA*kT; antisense) [compound 715508]
labelClass: condition met
--
substance: 715483 (k[5mC]*kT*k[5mC]*dT*dT*dT*dG*dG*dA*dA*dA*d[5mC]*d[5mC]*kA*kT*kT) [compound 715483]
labelClass: condition not met
--
substance: 715479 (kA*kA*kA*d[5mC]*d[5mC]*dA*dT*dT*dA*dT*dT*dA*d[5mC]*kT*k[5mC]*k[5mC]; antisense) [compound 715479]
labelClass: condition met

###

pIC50 for assorted substances
Tested on: Yap1 mRNA
experiment: Dose-dependent inhibition of human Yap1 in A-431 cells (Example 7, 10,000 cells per well, RTS36584)
Type: cell-based
statedConditions: Table 59, A-431 cells 10,000 cells per well, free uptake
pIC50: −log10 of the molar value. Strand notation (5' to 3'): a small letter for the sugar, then the base; units joined by * are phosphorothioate-linked, units joined directly phosphodiester-linked; [ ] holds rarer units or linkages, { } end groups; capitals alone tell only the bases. k = constrained ethyl (cEt); [5mC] = 5-methylcytosine; d = 2'-deoxy (DNA)
metric: pIC50

substance: 958533 (kG*k[5mC]*kA*dT*dA*dG*dA*dA*dG*dT*dA*dG*dG*kA*kG*k[5mC]; antisense) [compound 958533]
metric: pIC50
dataValue: 7.00
//
substance: 958603 (kT*kG*kG*dT*dA*dT*dG*dA*dA*dT*dT*d[5mC]*dT*kG*kA*kA; antisense) [compound 958603]
metric: pIC50
dataValue: 7.52
//
substance: 958597 (k[5mC]*k[5mC]*k[5mC]*dA*dA*dT*dA*d[5mC]*dA*dA*d[5mC]*d[5mC]*dA*kA*kG*kA; antisense) [compound 958597]
metric: pIC50
dataValue: 6.70
//
substance: 958572 (kA*kT*kT*dA*dT*dA*dG*dG*d[5mC]*dA*d[5mC]*dT*d[5mC]*k[5mC]*kT*kT; antisense) [compound 958572]
metric: pIC50
dataValue: 6.70

###

YAP1 (% UTC) for assorted substances
Test system: Yap1 mRNA
experiment: Antisense inhibition of human Yap1 in A-431 cells by cEt gapmers, single dose (Example 1, RTS4814)
Assay type: cell-based
statedConditions: Table 1; A-431 cells, free uptake, 2,000 nM, approximately 48 hours, RTS4814; Yap1 mRNA relative to untreated control cells
Strand notation (5' to 3'): a small letter for the sugar, then the base; units joined by * are phosphorothioate-linked, units joined directly phosphodiester-linked; [ ] holds rarer units or linkages, { } end groups; capitals alone tell only the bases. k = constrained ethyl (cEt); [5mC] = 5-methylcytosine; d = 2'-deoxy (DNA)

substance: 715565 (kG*kG*kA*dT*dA*dA*dA*dT*dG*dA*dA*dT*dT*kA*kT*kA; antisense) [Compound 715565]
systemTested: Yap1 mRNA
endpointUnit: % UTC
YAP1 (% UTC): 115
//
substance: 715439 (antisense kG*kG*kT*dT*d[5mC]*dA*dT*dG*dG*d[5mC]*dA*dA*dA*kA*k[5mC]*kG) [Compound 715439]
systemTested: Yap1 mRNA
endpointUnit: % UTC
YAP1 (% UTC): 99
//
substance: 715622 (antisense kA*kG*kT*dA*dA*dA*dA*dA*dA*dT*dA*dA*dG*kA*k[5mC]*kG) [Compound 715622]
systemTested: Yap1 mRNA
endpointUnit: % UTC
YAP1 (% UTC): 137
//
substance: 715466 (antisense k[5mC]*kA*kA*dG*dG*dT*d[5mC]*d[5mC]*dA*d[5mC]*dA*dT*dT*kT*kG*kT) [Compound 715466]
systemTested: Yap1 mRNA
endpointUnit: % UTC
YAP1 (% UTC): 83
//
substance: 715472 (antisense kT*kT*kT*dA*dT*d[5mC]*dT*dA*dG*d[5mC]*dT*dT*dG*kG*kT*kG) [Compound 715472]
systemTested: Yap1 mRNA
endpointUnit: % UTC
YAP1 (% UTC): 52
//
substance: 715526 (kA*k[5mC]*kT*dT*dA*d[5mC]*dT*dT*dT*dA*dA*dG*dA*kA*kG*kT; antisense) [Compound 715526]
systemTested: Yap1 mRNA
endpointUnit: % UTC
YAP1 (% UTC): 112
//
substance: 715418 (kA*kG*kT*dG*dT*d[5mC]*d[5mC]*d[5mC]*dA*dG*dG*dA*dG*kA*kA*kA; antisense) [Compound 715418]
systemTested: Yap1 mRNA
endpointUnit: % UTC
YAP1 (% UTC): 126
//
substance: 715562 (k[5mC]*kA*k[5mC]*dA*d[5mC]*dA*dA*d[5mC]*dT*d[5mC]*dA*dG*dA*k[5mC]*kA*kG; antisense) [Compound 715562]
systemTested: Yap1 mRNA
endpointUnit: % UTC
YAP1 (% UTC): 77
//
substance: 715523 (kA*kT*k[5mC]*dA*dG*dT*dA*d[5mC]*dT*dG*dG*d[5mC]*d[5mC]*kT*kA*kT; antisense) [Compound 715523]
systemTested: Yap1 mRNA
endpointUnit: % UTC
YAP1 (% UTC): 32
//
substance: 715478 (antisense kA*k[5mC]*k[5mC]*dA*dT*dT*dA*dT*dT*dA*d[5mC]*dT*d[5mC]*k[5mC]*kT*kG) [Compound 715478]
systemTested: Yap1 mRNA
endpointUnit: % UTC
YAP1 (% UTC): 7
//
substance: 715574 (kT*kA*k[5mC]*d[5mC]*dA*dA*dA*dA*d[5mC]*dG*dA*dG*dG*kG*kT*k[5mC]; antisense) [Compound 715574]
systemTested: Yap1 mRNA
endpointUnit: % UTC
YAP1 (% UTC): 118
//
substance: 715448 (antisense k[5mC]*kT*k[5mC]*dA*dA*dT*dT*d[5mC]*d[5mC]*dT*dG*dA*dG*kA*k[5mC]*kA) [Compound 715448]
systemTested: Yap1 mRNA
endpointUnit: % UTC
YAP1 (% UTC): 97
//
substance: 715427 (k[5mC]*k[5mC]*kA*dT*d[5mC]*d[5mC]*dA*dT*d[5mC]*dA*dG*dG*dA*kA*kG*kA; antisense) [Compound 715427]
systemTested: Yap1 mRNA
endpointUnit: % UTC
YAP1 (% UTC): 90

###

Test system: Yap1 mRNA
experiment: Antisense inhibition of human Yap1 in A-431 cells by cEt gapmers, single dose (Example 2, RTS4814)
Assay type: cell-based
statedConditions: Table 33; Yap1 mRNA, percent of untreated control; 3-10-3 cEt gapmers targeting SEQ ID NO.: 1, and 2
Strand notation (5' to 3'): a small letter for the sugar, then the base; units joined by * are phosphorothioate-linked, units joined directly phosphodiester-linked; [ ] holds rarer units or linkages, { } end groups; capitals alone tell only the bases. k = constrained ethyl (cEt); [5mC] = 5-methylcytosine; d = 2'-deoxy (DNA)
metric: YAP1 (% UTC)

substance: 1075667 (antisense k[5mC]*kA*kA*dA*dT*dT*dT*dA*dG*dT*dT*dG*dT*kG*k[5mC]*kA) [compound 1075667]
systemTested: Yap1 mRNA
endpointUnit: % UTC
dataValue: 109
--
substance: 1075763 (kA*kT*kT*dT*dA*dG*dG*d[5mC]*dT*dT*dT*dG*dG*kG*kT*kT; antisense) [compound 1075763]
systemTested: Yap1 mRNA
endpointUnit: % UTC
dataValue: 16
--
substance: 1074675 (antisense kA*kA*kA*dT*dT*dA*dT*dA*dG*dG*d[5mC]*dA*d[5mC]*kT*k[5mC]*k[5mC]) [compound 1074675]
systemTested: Yap1 mRNA
endpointUnit: % UTC
dataValue: 6
--
substance: 1075635 (antisense kA*kA*kT*dA*dA*dA*d[5mC]*dA*d[5mC]*d[5mC]*dT*d[5mC]*dG*k[5mC]*k[5mC]*kA) [compound 1075635]
systemTested: Yap1 mRNA
endpointUnit: % UTC
dataValue: 97
--
substance: 1074867 (kT*kA*kA*d[5mC]*dA*dT*dA*dT*dG*dA*dG*d[5mC]*dA*kT*kG*k[5mC]; antisense) [compound 1074867]
systemTested: Yap1 mRNA
endpointUnit: % UTC
dataValue: 40
--
substance: 1074515 (kT*kA*kA*d[5mC]*dT*dG*dG*dA*dA*dA*dG*d[5mC]*dA*kG*kG*kG; antisense) [compound 1074515]
systemTested: Yap1 mRNA
endpointUnit: % UTC
dataValue: 9
--
substance: 1075699 (kG*kA*kT*dT*dT*dA*dT*dA*d[5mC]*dT*d[5mC]*dA*dG*kG*kT*kT; antisense) [compound 1075699]
systemTested: Yap1 mRNA
endpointUnit: % UTC
dataValue: 4
--
substance: 1076211 (kA*kA*kT*dT*dT*dA*dT*dA*dT*dG*d[5mC]*dT*d[5mC]*k[5mC]*k[5mC]*kT; antisense) [compound 1076211]
systemTested: Yap1 mRNA
endpointUnit: % UTC
dataValue: 22
--
substance: 1074259 (antisense kT*k[5mC]*kA*dT*dA*dT*dT*d[5mC]*dT*dG*d[5mC]*dT*dG*k[5mC]*kA*k[5mC]) [compound 1074259]
systemTested: Yap1 mRNA
endpointUnit: % UTC
dataValue: 38
--
substance: 1074771 (kA*kA*kT*d[5mC]*dT*dT*dA*dT*d[5mC]*d[5mC]*d[5mC]*dA*dA*kT*kG*k[5mC]; antisense) [compound 1074771]
systemTested: Yap1 mRNA
endpointUnit: % UTC
dataValue: 18
--
substance: 1075603 (antisense kT*kA*kT*dG*dA*dA*d[5mC]*dA*dA*dG*dT*dA*dT*kG*kA*kG) [compound 1075603]
systemTested: Yap1 mRNA
endpointUnit: % UTC
dataValue: 35
--
substance: 1076467 (kG*kT*kA*dT*dT*dT*dA*dG*dA*dG*d[5mC]*dT*dT*kA*kA*kG; antisense) [compound 1076467]
systemTested: Yap1 mRNA
endpointUnit: % UTC
dataValue: 5
--
substance: 1074611 (DNA kT*kA*kG*d[5mC]*dT*dT*dA*dT*dA*dT*dT*dG*dA*kA*kG*kA) [compound 1074611]
systemTested: Yap1 mRNA
endpointUnit: % UTC
dataValue: 19
